B1: TPR t1 (parent)
chain: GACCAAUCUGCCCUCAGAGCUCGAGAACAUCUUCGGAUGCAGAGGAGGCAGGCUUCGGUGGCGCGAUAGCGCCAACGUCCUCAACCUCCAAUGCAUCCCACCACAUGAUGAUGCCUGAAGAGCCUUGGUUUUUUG

variants of: B1; assay: polymerase ribozyme fitness, log enrichment relative to wild type (log ratio); higher = more active; in vitro selection for triplet polymerase activity
Is polymerase ribozyme fitness (log ratio) at least -3? Then Satisfied. If not, Not satisfied.

Examples with answers:
In [3]: df
Out[3]:
           variant_descriptor      group
0                  C76U C104A  Satisfied
1                   C11U C94A  Satisfied
2  G52A A90G G93U U112C A119C  Satisfied

Does the variant C20A G120C have recorded polymerase ribozyme fitness (log ratio) that is -3 or more?
Satisfied
